molecular target: human Keap1 Kelch (Homo sapiens, UniProt Q14145); test: Fluorescence polarization (FP) competition assay with Cy5-Nrf2 peptide probe; conditions: FP (Ki/nM), Table S2; mean ± SEM, ≥3 individual measurements; NA: not active (measured up to 4 mM)
Sequence (Q14145 321-609): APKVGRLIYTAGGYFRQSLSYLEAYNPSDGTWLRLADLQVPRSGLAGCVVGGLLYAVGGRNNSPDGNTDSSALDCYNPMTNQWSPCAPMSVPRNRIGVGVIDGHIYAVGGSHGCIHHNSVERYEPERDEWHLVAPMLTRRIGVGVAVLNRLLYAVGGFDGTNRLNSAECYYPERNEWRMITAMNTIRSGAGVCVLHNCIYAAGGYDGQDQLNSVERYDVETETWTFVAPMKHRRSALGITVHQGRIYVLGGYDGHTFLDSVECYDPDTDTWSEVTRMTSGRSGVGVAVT
For each record, check the reported Ki: if it is below 30 nM write 1 (yes), else write 0 (no).

> print(dat)
                                   molecule  answer.label
1  O=C(O)CC(c1ccc2c(c1)CCO2)c1ccc2ccc(OCC(=O)NC3CCCCC3)cc2c1 (stereo not drawn)        0 (no)
2  Cc1cc2c(cc1C(CC(=O)O)c1ccc3ccc(OCC(=O)NC4CCCCCC4)cc3c1)CCO2 (stereo not drawn)       1 (yes)
3  O=C(O)CC(c1ccccc1)c1ccc2ccc(OCC(=O)NC3CCCCCC3)cc2c1 (stereo not drawn)        0 (no)
4  O=C(O)CC(c1ccc2c(c1)CCO2)c1ccc2ccc(OCC(=O)NC3C=CCCC3)cc2c1 (stereo not drawn)       1 (yes)
5  COc1ccc(C(CC(=O)O)c2ccc3ccc(OCC(=O)NC4CCCCCC4)cc3c2)c(C)c1 (stereo not drawn)       1 (yes)
6  O=C(O)CCc1ccc2ccc(OCC(=O)NN3CCOCC3)cc2c1        0 (no)
7  O=C(O)CC(c1ccc2c(c1)OC(F)(F)O2)c1ccc2ccc(OCC(=O)NC3CCCCC3)cc2c1 (stereo not drawn)        0 (no)
8  O=C(O)CC(c1ccc(Cl)cc1)c1ccc2ccc(OCC(=O)NC3CCCCCC3)cc2c1 (stereo not drawn)        0 (no)
